System: Anopheles stephensi
Assay: Anopheles stephensi treated well plate contact test: knockdown and mortality
Type: in vivo
Conditions: test compound 2 ppm, without TFNA-AM, after 48 hours

- compound: "CN(C(=O)c1ccccc1)c1cccc(C(=O)Nc2c(Br)cc(C(F)(C(F)(F)F)C(F)(F)F)cc2C(F)(F)F)c1F [Broflanilide]"
  uom: "%"
  mortality % 48, without TFNA-AM: 100
- compound: "N#Cc1ccc(CC(=NNC(=O)Nc2ccc(OC(F)(F)F)cc2)c2cccc(C(F)(F)F)c2)cc1 (mixture of isomers)"
  uom: "%"
  mortality % 48, without TFNA-AM: 0
- compound: "O=c1c(-c2cccc(C(F)(F)F)c2)c([O-])[n+](Cc2cncnc2)c2ccccn12"
  uom: "%"
  mortality % 48, without TFNA-AM: 0
- compound: "CO/C=C(/C(=O)OC)c1ccccc1COc1cccc(C(F)(F)F)n1"
  uom: "%"
  mortality % 48, without TFNA-AM: 0
- compound: "O=C1C=C(N(Cc2ccc(Cl)nc2)CC(F)F)CO1"
  uom: "%"
  mortality % 48, without TFNA-AM: 0
- compound: "CC(C)=C[C@@H]1[C@@H](C(=O)O[C@H](C#N)c2cccc(Oc3ccccc3)c2)C1(C)C (relative stereo) [d-d, trans cyphenothrin]"
  uom: "%"
  mortality % 48, without TFNA-AM: 0

* * *

System: Anopheles stephensi
Test: Anopheles stephensi treated well plate contact test: knockdown and mortality
Type: in vivo
Conditions: test compound 200 ppm plus 2 ppm TFNA-AM, after 24 hours
Each entry below carries its recorded mortality % 24, with TFNA-AM.
observation.type: mortality % 24, with TFNA-AM (%)

- molecule: "CO/C=C(/C(=O)OC)c1ccccc1COc1cccc(C(F)(F)F)n1 [Picoxystrobin]"
  tgt: "Anopheles stephensi"
  numeric.result: 100
- molecule: "C/C=C(\\C)C(=O)O[C@H]1C[C@@H](OC(C)=O)[C@@]2(C(=O)OC)CO[C@H]3[C@@H](O)[C@@](C)([C@]45O[C@@]4(C)[C@H]4C[C@@H]5O[C@@H]5OC=C[C@@]54O)[C@H]4[C@]1(CO[C@]4(O)C(=O)OC)[C@@H]32 [Azadirachtin]"
  tgt: "Anopheles stephensi"
  numeric.result: 80
- molecule: "CO/C=C(/C(=O)OC)c1ccccc1COc1cc(C(F)(F)F)nc(OC(C)C)n1 [Fluacrypyrim]"
  tgt: "Anopheles stephensi"
  numeric.result: 100
- molecule: "CN(C(=O)c1ccccc1)c1cccc(C(=O)Nc2c(Br)cc(C(F)(C(F)(F)F)C(F)(F)F)cc2C(F)(F)F)c1F [Broflanilide]"
  tgt: "Anopheles stephensi"
  numeric.result: 100
- molecule: "CC(C)c1cc(Oc2ccccc2)cc(C(C)C)c1NC(=S)NC(C)(C)C [Diafenthiuron]"
  tgt: "Anopheles stephensi"
  numeric.result: 100
- molecule: "Cc1cc(C(F)(C(F)(F)F)C(F)(F)F)ccc1NC(=O)c1cccc(I)c1C(=O)NC(C)(C)CS(C)(=O)=O [Flubendiamide]"
  tgt: "Anopheles stephensi"
  numeric.result: 60
- molecule: "CO/C=C(/C(=O)OC)c1ccccc1Oc1ncc(C(F)(F)F)s1 [Compound 54]"
  tgt: "Anopheles stephensi"
  numeric.result: 100
- molecule: "CC(COc1ccc(Oc2ccccc2)cc1)Oc1ccccn1 (stereo not shown) [Pyriproxyfen]"
  tgt: "Anopheles stephensi"
  numeric.result: 80
- molecule: "CCOC(=O)NCCOc1ccc(Oc2ccccc2)cc1 [Fenoxycarb]"
  tgt: "Anopheles stephensi"
  numeric.result: 80
- molecule: "N#Cc1ccc(CC(=NNC(=O)Nc2ccc(OC(F)(F)F)cc2)c2cccc(C(F)(F)F)c2)cc1 (mixture of isomers) [Metaflumizone]"
  tgt: "Anopheles stephensi"
  numeric.result: 100
- molecule: "CN/C(=N/CC1CCOC1)N[N+](=O)[O-] (stereo not shown) [Dinotefuran]"
  tgt: "Anopheles stephensi"
  numeric.result: 100
- molecule: "CCc1nn(C)c(C(=O)NCc2ccc(C(C)(C)C)cc2)c1Cl [Tebufenpyrad]"
  tgt: "Anopheles stephensi"
  numeric.result: 100
- molecule: "O=C1C=C(N(Cc2ccc(Cl)nc2)CC(F)F)CO1 [Flupyradifurone]"
  tgt: "Anopheles stephensi"
  numeric.result: 70
- molecule: "CN1COCN(Cc2cnc(Cl)s2)/C1=N\\[N+](=O)[O-] [Thiamethoxam]"
  tgt: "Anopheles stephensi"
  numeric.result: 100
- molecule: "O=c1c(-c2cccc(C(F)(F)F)c2)c([O-])[n+](Cc2cncnc2)c2ccccn12 [Triflumizopyrim]"
  tgt: "Anopheles stephensi"
  numeric.result: 100
- molecule: "CN/C(=N\\[N+](=O)[O-])NCc1cnc(Cl)s1 [Clothianidin]"
  tgt: "Anopheles stephensi"
  numeric.result: 100
- molecule: "OC(c1ccc(Cl)cc1)(c1ccc(Cl)cc1)C(Cl)(Cl)Cl [Dicofol]"
  tgt: "Anopheles stephensi"
  numeric.result: 100
- molecule: "CON=C(C(=O)OC)c1ccccc1CON=C(C)c1cccc(C(F)(F)F)c1 [Trifloxystrobin]"
  tgt: "Anopheles stephensi"
  numeric.result: 100
- molecule: "O=[N+]([O-])c1cc(C(F)(F)F)c(Cl)c([N+](=O)[O-])c1Nc1ncc(C(F)(F)F)cc1Cl [Fluazinam]"
  tgt: "Anopheles stephensi"
  numeric.result: 100
- molecule: "CO/C=C(/C(=O)OC)c1ccccc1Oc1nc(C(C)(C)C)ns1 [Compound 48]"
  tgt: "Anopheles stephensi"
  numeric.result: 100
- molecule: "CCOc1cc(C(C)(C)C)ccc1C1COC(c2c(F)cccc2F)=N1 (stereo not shown) [Etoxazole]"
  tgt: "Anopheles stephensi"
  numeric.result: 80
- molecule: "CC(c1ccc(C(F)(F)F)nc1)S(C)(=O)=NC#N (stereo not shown) [Sulfoxaflor]"
  tgt: "Anopheles stephensi"
  numeric.result: 90
- molecule: "Nc1nc(N)nc(NC2CC2)n1 [Cyromazine]"
  tgt: "Anopheles stephensi"
  numeric.result: 80
- molecule: "CC(C)N1C(=O)N(c2ccccc2)CS/C1=N\\C(C)(C)C [Buprofezin]"
  tgt: "Anopheles stephensi"
  numeric.result: 80
- molecule: "Cc1ccc(/N=C/N(C)/C=N/c2ccc(C)cc2C)c(C)c1 [Amitraz]"
  tgt: "Anopheles stephensi"
  numeric.result: 100
- molecule: "CO/C=C(/C(=O)OC)c1ccccc1Oc1cc(C(F)(F)F)ccn1 [Compound 49]"
  tgt: "Anopheles stephensi"
  numeric.result: 100
- molecule: "CCC(Nc1ncnc(C)c1Cl)c1ccc(OC(F)F)cc1 (stereo not shown) [Diflumetorim]"
  tgt: "Anopheles stephensi"
  numeric.result: 100
- molecule: "O=[N+]([O-])NC1=NCCN1Cc1ccc(Cl)nc1 [Imidacloprid]"
  tgt: "Anopheles stephensi"
  numeric.result: 100
